target: GIPR (CHO-K1-hGIPR cells) (Homo sapiens, UniProt P48546); construct: host or cells: CHO-K1; assay: FACS binding assay; details: competition with 20 nM GIP-057, 4° C., 1 hour, read-out: pIC50 Category (converted)
Sequence (P48546 22-466): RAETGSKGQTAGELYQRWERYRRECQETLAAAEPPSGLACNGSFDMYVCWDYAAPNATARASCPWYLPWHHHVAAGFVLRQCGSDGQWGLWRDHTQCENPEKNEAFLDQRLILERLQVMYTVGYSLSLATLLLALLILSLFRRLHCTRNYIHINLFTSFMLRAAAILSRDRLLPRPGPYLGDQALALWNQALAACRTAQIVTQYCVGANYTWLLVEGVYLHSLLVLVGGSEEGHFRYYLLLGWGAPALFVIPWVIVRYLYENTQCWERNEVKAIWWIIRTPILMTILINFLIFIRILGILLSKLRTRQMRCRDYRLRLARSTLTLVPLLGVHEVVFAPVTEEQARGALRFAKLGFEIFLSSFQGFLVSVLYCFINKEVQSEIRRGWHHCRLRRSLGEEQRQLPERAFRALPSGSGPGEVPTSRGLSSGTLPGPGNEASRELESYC
*1 amine or outer side, *2 acyl side, *3 side chain or, on linkers, in order; H or OH if unused. Where a SMILES comes first, the peptide text is derived from it. Bridges are numbered along the chain shown (N, C = ends). [ ]: non-standard residue; d: D form. The star is where a group is joined. X3 = O=C(O)CN1CCN(CC(=O)O)CCN(CC(=O)NCCCOCCOCCOCCCN*)CCN(CC(=O)O)CC1; Trp(5-Cl) = N[C@@H](Cc1c[nH]c2ccc(Cl)cc12)C(=O)O; mXylylene = c1cc(C[*:1])cc(C[*:2])c1; X6 = c1cc(CSCCN[*:2])nc(C[*:1])c1; Suc = O=C(CCC(=O)[*:2])[*:1]; Aib = CC(C)(N)C(=O)O
MEASUREMENT_NAME: IC50

COMPOUND: CC[C@H](C)[C@@H]1NC(=O)[C@H](CC(C)C)NC(=O)[C@H](C)NC(=O)[C@@H](NC(=O)[C@H](CC(C)C)NC(=O)[C@H](CCC(=O)O)NC(=O)[C@@H]2CCCN2C(=O)[C@H](Cc2c[nH]c3ccccc23)NC(=O)[C@H](Cc2c[nH]c3ccccc23)NC(=O)[C@H](CC(=O)O)NC(=O)[C@H](Cc2ccc(O)cc2)NC(C)=O)CSCc2cccc(c2)CSC[C@@H](C(N)=O)NC1=O [GIP-240] (Ac-YDWWPELCALIC-NH2; linker 8-12 via mXylylene)
ASSAYED_TARGET: GIPR (CHO-K1-hGIPR cells) (Homo sapiens, UniProt P48546)
IC50: 10 to 79.4 nM

Let us move to another entry and its IC50.
Query :: Lab note: need IC50 with GIPR (CHO-K1-hGIPR cells) (Homo sapiens, UniProt P48546) for entry CC[C@H](C)[C@@H]1NC(=O)[C@H](CC(C)C)NC(=O)C(C)(C)NC(=O)[C@@H](NC(=O)[C@@H](CC(C)C)NC(=O)[C@H](CCC(=O)O)NC(=O)[C@@H]2CCCN2C(=O)[C@H](Cc2c[nH]c3ccc(Cl)cc23)NC(=O)[C@H](Cc2c[nH]c3ccccc23)NC(=O)[C@H](CC(=O)O)NC(=O)CCC(=O)NCCCOCCOCCOCCCNC(=O)CN2CCN(CC(=O)O)CCN(CC(=O)O)CCN(CC(=O)O)CC2)CSCc2cccc(n2)CSCCNC1=O [GIP-090] ({X3-Suc}-DW[Trp(5-Cl)]PE[dL]C[Aib]LI; linker 7-C via X6) , please look it up.
Result :: < 10 nM
